System: NCI-H522
Assay Notes: NCI tumour cell line growth inhibition, 48 h
Calls of active or inactive are those of the source. Rule as the data show it: active = GI50 up to about 1.1 µM and inactive = higher.
Possible outcomes: 1 (yes) (active), 0 (no) (inactive)

# Compound, Discrete Label
data = [
    ("Cc1nn(-c2ccccc2)c2c1C(c1ccc(Cl)cc1)NC(=S)N2 (stereo not drawn)", "0 (no)"),
    ("O=C1C=C(NCCOCCO)C(=O)c2c(O)ccc(O)c21", "0 (no)"),
    ("CCCCN(CCCC)CCCCNc1c(C)cnc2cc(Cl)ccc12", "0 (no)"),
    ("CCCCCOC(=O)C(=O)Nc1[nH]nnc1C(N)=O", "0 (no)"),
    ("CC[N+]1(C)CCC(O)(c2ccc(C)cc2)C(C(=O)c2ccc(C)cc2)C1 (stereo not drawn)", "0 (no)"),
    ("O=C1c2ccccc2C(=O)c2c1ccc1conc21", "0 (no)"),
    ("CC1=C(C(=O)OCc2ccncc2)C(C2=C(C)SCCS2)C(C(=O)OCc2ccncc2)=C(C)N1", "0 (no)"),
    ("O=[N+]([O-])c1ccc(C[P+](c2ccccc2)(c2ccccc2)c2ccccc2)cc1", "0 (no)"),
    ("COc1cc2cc(C(=O)N3CC(COS(C)(=O)=O)c4ccc(O)cc43)[nH]c2c(OC)c1OC (stereo not drawn)", "1 (yes)"),
    ("Cc1cc(C)c2c(c1)CC1(Cc3c(C)ccc(C)c3C1=O)C2=O (stereo not drawn)", "0 (no)"),
    ("CCOP(=O)(OCC)/C(C#N)=C/c1c(C)[nH]c2ccccc12", "0 (no)"),
    ("COc1cc(O)c(Cc2ccccc2O)c(O)c1C(=O)CCc1ccccc1", "0 (no)"),
    ("CSc1c(C(=O)Nc2ccc(Cl)cc2)c(N)nn1-c1ccccc1", "0 (no)"),
    ("CC(C)(C=O)CC(C#N)/C(=N\\NC(N)=O)C(=O)Nc1ccccc1C(N)=O (stereo not drawn)", "0 (no)"),
    ("COC(=O)C1(C(=O)OC)CC(=O)c2cc3c(cc2-c2c(cc(OC)c(OC)c2OC)C1)OCO3", "0 (no)"),
    ("C1=CC2C(C3CN(c4ccccc4)N=C13)C1C3C4C=CC21C=CC43 (stereo not drawn)", "0 (no)"),
    ("CC[C@@]1(O)C(=O)OCc2c1cc1n(c2=O)Cc2c-1nc1ccccc1c2/C=N\\NC(=O)C(N)Cc1c[nH]cn1 (stereo partly drawn)", "1 (yes)"),
    ("C=CCn1c(=O)c2ccccc2[n+]2c(C)c(C(=O)OCC)sc12", "0 (no)"),
    ("O=C1C2c3[nH]c4ccccc4c3C3CCCCCC3C2C(=O)N1c1ccccc1 (stereo not drawn)", "0 (no)"),
    ("O=C(Nc1nc(C23CC4CC(CC(C4)C2)C3)cs1)c1cc2c(ccc3ccccc32)oc1=O", "0 (no)"),
    ("CC1=Nc2ccccc2C1C(Cc1ccccc1N)c1c(C)[nH]c2ccccc12 (stereo not drawn)", "0 (no)"),
    ("NCCCCCS(=O)(=O)O", "0 (no)"),
    ("CCOC(=O)C(C#N)C1=CC(=O)C(=O)c2ccc(OC)cc21 (stereo not drawn)", "0 (no)"),
]

---

Test system: UACC-257
Assay Notes: NCI tumour cell line growth inhibition, 48 h
Calls of active or inactive are those of the source. No stated cut-off is given here; in the data, active = GI50 up to about 1.1 µM and inactive = higher.
Possible outcomes: TRUE (active), FALSE (inactive)

# Compound, Discrete Label
measured = [
    ("O=S(=O)(CCBr)CCBr", "FALSE"),
    ("CCOc1ccc(/C=C/c2cc(OC)c(OC)c(OC)c2)cc1", "TRUE"),
    ("CCOC(=O)C1(Cc2ccccc2)C=CN(C(=O)c2ccccc2)C=C1", "FALSE"),
    ("O=C1CCSCCC(=O)Nc2ccccc2N1", "FALSE"),
    ("O=c1[nH]c(=O)n(C2CC(O)C(CO)O2)c2nc3ccc4ccccc4c3nc12 (centres undefined)", "FALSE"),
    ("CSC1=C(c2ccc(Cl)cc2)SC(N2CCCCC2)N1c1ccc([N+](=O)[O-])cc1 (centres undefined)", "FALSE"),
    ("Cc1cc(C)c(S(=O)(=O)ONC(=O)OC(C)(C)C)c(C)c1", "FALSE"),
    ("Cc1c2oc(=O)c(C#N)cc2c2ccccn12", "FALSE"),
    ("O=C(Nc1nnc(-c2c(Cl)c(Cl)c(Cl)c(Cl)c2-c2nc3cc(C(=O)c4ccccc4)ccc3[nH]2)o1)c1ccc(Cl)cc1", "FALSE"),
    ("O=C(N/C(=C\\c1ccc(/C=C(\\NC(=O)c2ccccc2)c2nc3ccccc3s2)cc1)c1nc2ccccc2s1)c1ccccc1", "FALSE"),
    ("OC1(c2ccccc2)CC2CCC(C1)N2CCCC(O)(c1ccccc1)c1ccccc1 (centres undefined)", "FALSE"),
    ("Cc1nn(-c2ccccc2)c2c1C(c1ccc(Cl)cc1)NC(=S)N2 (centres undefined)", "FALSE"),
    ("Cc1nc(-n2nc(-c3ccccc3)cc2-c2ccccc2)sc1C(=O)CC(=O)C(=O)Nc1ccc(O)cc1", "FALSE"),
    ("Nc1nc(OCc2ccccc2)c2nc[nH]c2n1", "FALSE"),
    ("O=C(Nc1nc(C23CC4CC(CC(C4)C2)C3)cs1)c1cc2c(ccc3ccccc32)oc1=O", "FALSE"),
    ("Nc1cc(=O)n(-c2ccccc2)c(=S)n1-c1ccccc1", "FALSE"),
    ("CC(C)(C=O)CC(C#N)/C(=N\\NC(N)=O)C(=O)Nc1ccccc1C(N)=O (centres undefined)", "FALSE"),
    ("COc1ccc(-c2nc(SCC(=O)NNC(=S)Nc3ccccc3)[nH]c2-c2ccc(OC)cc2)cc1", "FALSE"),
    ("CCC1(CCSC(=N)N)C(=O)NC(=O)NC1=O", "FALSE"),
    ("CCOC(=O)CON=c1c2ccccc2ccc2ccccc12", "FALSE"),
    ("CC1C(OC2O[C@@H]3O[C@@]4(C)CC[C@H]5[C@H](C)CC[C@@H](C2C)[C@@]35O4)O[C@@H]2O[C@@]3(C)CC[C@H]4[C@H](C)CC[C@@H]1[C@@]24O3 (some centres undefined)", "FALSE"),
    ("C/C(=C1/N=C(c2ccccc2)OC1=O)c1cccs1", "FALSE"),
    ("CNCc1cc(OC)ccc1-c1ccc(OC)c(OC)c1OC", "FALSE"),
    ("CC(=O)O[C@H]1CC[C@@]2(C)C(=CC[C@H]3[C@@H]4C[C@H](N5CCN(C)CC5)[C@H](OC(C)=O)[C@@]4(C)CC[C@@H]32)C1", "FALSE"),
    ("C=CC[C@H](C[C@H](C[C@H](C[C@H](C[C@H](C[C@H](C[C@H](C[C@H](C[C@H](C[C@H](CCCCC)OC)OC)OC)OC)OC)OC)OC)OC)OC)OC", "FALSE"),
    ("S=C(c1c[nH]c2ccccc12)N1CCN(Cc2ccccc2)CC1", "FALSE"),
    ("c1ccc(Nn2c(CCCCCCCCc3nnc(COc4ccccc4)n3Nc3ccccc3)nnc2COc2ccccc2)cc1", "FALSE"),
    ("CC(=O)N(CN1C(=O)CCC1C(=O)O)c1ccc(C)cc1 (centres undefined)", "FALSE"),
    ("CC(C)=CC(C)C(C(O)CCC1(c2ccoc2)OCCO1)S(=O)(=O)c1ccccc1 (centres undefined)", "FALSE"),
    ("CC(C)(CO)NC(=O)c1cccc(C(=O)NC(C)(C)CO)c1Br", "FALSE"),
    ("CCCCN(CCCC)CCCCNc1c(C)cnc2cc(Cl)ccc12", "FALSE"),
    ("CC(=O)N1C(=O)/C(=C\\C(=O)c2ccc(Cl)cc2)c2ccccc21", "FALSE"),
    ("O=C(N/N=C\\c1c(O)ccc2ccccc12)c1ccncc1", "FALSE"),
    ("C[n+]1ccc(Nc2ccc(NC(=O)c3ccc(Nc4cc[n+](C)c5ccc([N+](=O)[O-])cc45)cc3[N+](=O)[O-])cc2)cc1", "FALSE"),
    ("CCCCCCCCCCCCO[PH](=O)OCCCCCCCCCCCC", "FALSE"),
    ("CNc1cccc2c1C(C)C[C@]1(C)C(=O)Nc3ccccc3[C@H]21 (some centres undefined)", "FALSE"),
    ("NC(=O)c1ncn(C2CCC(CP(=O)(O)O)C2)c1N (centres undefined)", "FALSE"),
    ("CC(C)c1ccccc1SC1CC(=O)CC(Sc2ccccc2C(C)C)C12O[C@H](c1ccccc1)[C@@H](c1ccccc1)O2 (some centres undefined)", "FALSE"),
    ("CCCCCOC(=O)C(=O)Nc1[nH]nnc1C(N)=O", "FALSE"),
]
